Test Protocol: Oral bioavailability in mouse at 5 mg/kg
Assay type: ADME, organism-based
Stated Conditions: in vivo

[
  {
    "Structure": "CC(C)N(C)c1ccc([C@H]2C[C@@]3(C)[C@@H](CC[C@@]3(O)C#CC(C)(C)C)[C@@H]3CCC4=CC(=O)CC[C@@H]4[C@H]32)cc1",
    "bioavailability, %": 21
  }
]

====

Listed compounds paired with reported Cmax
Test Protocol: Cmax in rat at 5 mg/kg, po
Assay type: ADME, organism-based
Design: dose 5 mg/kg, route oral
Stated Conditions: in vivo

[
  {
    "Structure": "CC(C)(C)C#C[C@]1(O)CC[C@H]2[C@@H]3CCC4=CC(=O)CCC4=C3[C@@H](c3ccc(N4CCCC4)cc3)C[C@@]21C",
    "Unit Abbrev": "ng/mL",
    "Cmax": 21
  },
  {
    "Structure": "CC#C[C@]1(O)CC[C@H]2[C@@H]3CCC4=CC(=O)CCC4=C3[C@@H](c3ccc(N(C)C)cc3)C[C@@]21C",
    "Unit Abbrev": "ng/mL",
    "Cmax": 24
  },
  {
    "Structure": "CN(C)c1ccc([C@H]2C[C@@]3(C)[C@@H](CC[C@@]3(O)C#CC(C)(C)C)[C@@H]3CCC4=CC(=O)CCC4=C32)cc1",
    "Unit Abbrev": "ng/mL",
    "Cmax": 72
  },
  {
    "Structure": "CC(C)(C)C#C[C@]1(O)CC[C@H]2[C@@H]3CCC4=CC(=O)CCC4=C3[C@@H](c3ccc(C4(C)COC4)cc3)C[C@@]21C",
    "Unit Abbrev": "ng/mL",
    "Cmax": 59
  },
  {
    "Structure": "COC(C)(C)C#C[C@]1(O)CC[C@H]2[C@@H]3CCC4=CC(=O)CC[C@@H]4[C@H]3[C@@H](c3ccc(N(C)C)cc3)C[C@@]21C",
    "Unit Abbrev": "ng/mL",
    "Cmax": 295
  },
  {
    "Structure": "CC(C)N(C)c1ccc([C@H]2C[C@@]3(C)[C@@H](CC[C@@]3(O)C#CC(C)(C)C)[C@@H]3CCC4=CC(=O)CCC4=C32)cc1",
    "Unit Abbrev": "ng/mL",
    "Cmax": 59
  },
  {
    "Structure": "CC(C)N(C)c1ccc([C@H]2C[C@@]3(C)[C@@H](CC[C@@]3(O)C#CC(C)(C)C)[C@@H]3CCC4=CC(=O)CC[C@@H]4[C@H]32)cc1",
    "Unit Abbrev": "ng/mL",
    "Cmax": 149
  }
]
